Target: Recombinant human FAM19A5 protein (His-tagged) (human) (UniProt Q7Z5A7)
Assay: ELISA, N'-Term His
Parameters: unit not given here
readout.name: Bmax
Give the figure by itself; no unit, no explanation.

Anti-FAM19A5 (P2-C12) (antibody, V domains shown) VH: QSLEESGGRLVTPGTPLTLTCTVSGFSLSTYAVTWVRQAPGKGLEWIGYINWRGGTSYANWAKGRFTISKTSSTTVDLKMTSPTTEDTATYFCARDASSGAAFGSYGMDPWGPGTLVTVSS VL: ELDMTQTPSSVSAAVGGTVTIKCQASQSISSYLSWYQQKPGQPPKLLIYEASKLASGVPSRFSGSGYGTEFTLTISDLECADAATYYCQQGYSSTNVWNAFGGGTNVEIK :: 1.73

binder Anti-FAM19A5 (P1-F02) (antibody, V domains shown) VH: QSLEESGGRLVTPGTPLTLTCTASGFSLSNYYMGWVRQAPGEGLEWIGIIYASGSTYYASWAKGRFTISKTSTTVDLKMTSLTTEDTATYFCARIDIGVGDYGWAYDRLDLWGQGTLVTVSS VL: ELDMTQTPPSLSASVGETVRIRCLASEDIYSGISWYQQKPGKPPTLLIYGASNLESGVPPRFSGSGSGTDYTLTIGGVQAEDAATYYCLGGYSYSSITFGAGTNVEIK , Bmax observed: 0.172
